Field: Activity relative to SEQ ID NO: 1. Provide a value for each of the substances that follow.
tested on: frozen-thawed rooster sperm binding to an extract of hen's egg membrane; experiment: In vitro microwell sperm-egg binding assay, sperm treated with peptides (fluorescent plate reader); format: cell-based; conditions: frozen-thawed rooster sperm
Where no end group is shown, it is not given here. [ ]: non-standard residue; d: D form.
Just the number, please, no unit attached.

Q: Entry SEQ ID NO:6: Table 1 sequence: Tyr-Pro-Gln-Asp-Arg-Thr-Arg-Ser-Gln-Pro-Gln-Cys (YPQDRTRSQPQC; Replacement of the terminal proline of SEQ ID NO 2 with a cysteine does not substantially change biological activity.) , system frozen-thawed rooster sperm binding to an extract of hen's egg membrane: what Activity relative to SEQ ID NO: 1 was measured?
Ans: 0.0005

Q: Observed Activity relative to SEQ ID NO: 1 on frozen-thawed rooster sperm binding to an extract of hen's egg membrane for SEQ ID NO:11: Table 1 sequence: D-Leu-Tyr-Pro-Gln-Asp-Arg-Thr-Arg-Ser-Gln-Pro-Gln-Pro-Lys-Ala-Asn ([dL]YPQDRTRSQPQPKAN) , please.
Ans: 0.001

Q: Activity relative to SEQ ID NO: 1 of YPQDRTRSQPQPKAN [SEQ ID NO:1] on frozen-thawed rooster sperm binding to an extract of hen's egg membrane?
Ans: 1

Q: Write down the reported Activity relative to SEQ ID NO: 1 of SEQ ID NO:5: Table 1 sequence: Pro-Gln-Pro-Lys-Ala-Asn-Glu-Asp-Val-Cys-Gln-Asp-Cys-Met-Lys-Leu-Val-Thr-Asp (PQPKANEDVCQDCMKLVTD; Addition of amino acids distal to the terminal asparagine of SEQ ID NO 3 does not substantially change biological activity.) , test system: frozen-thawed rooster sperm binding to an extract of hen's egg membrane.
Ans: 0.0003

Q: Enter reported Activity relative to SEQ ID NO: 1 observed with frozen-thawed rooster sperm binding to an extract of hen's egg membrane for SEQ ID NO:4: Table 1 sequence: Gln-Pro-Gln-Pro-Lys-Ala-Asn-Glu-Asp-Val-Cys-Gln-Asp-Cys-Met (QPQPKANEDVCQDCM; Addition of amino acids distal to the terminal asparagine of SEQ ID NO 3 does not substantially change biological activity.)
Ans: 0.002

Q: Activity relative to SEQ ID NO: 1 of SEQ ID NO:3: Table 1 sequence: Gln-Pro-Gln-Pro-Lys-Ala-Asn (QPQPKAN; Portion of SEQ ID NO 1 essentially devoid of binding capability.) on frozen-thawed rooster sperm binding to an extract of hen's egg membrane?
Ans: 0.0001

Q: Lab request: please report Activity relative to SEQ ID NO: 1 under test system frozen-thawed rooster sperm binding to an extract of hen's egg membrane for SEQ ID NO:2: Table 1 sequence: Tyr-Pro-Gln-Asp-Arg-Thr-Arg-Ser-Gln-Pro-Gln-Pro (YPQDRTRSQPQP; Portion of SEQ ID NO 1 showing lower binding capability.)
Ans: 0.0006

Q: // fetch frozen-thawed rooster sperm binding to an extract of hen's egg membrane Activity relative to SEQ ID NO: 1 for SEQ ID NO:10: Table 1 sequence: L-Leu-Tyr-Pro-Gln-Asp-Arg-Thr-Arg-Ser-Gln-Pro-Gln-Pro-Lys-Ala-Asn (LYPQDRTRSQPQPKAN; L-amino acids; SITE 1 L-isomer)
Ans: 0.94

Q: Fill in the recorded Activity relative to SEQ ID NO: 1 for this substance, with frozen-thawed rooster sperm binding to an extract of hen's egg membrane as test system: SEQ ID NO:8: Table 1 sequence: Phe-Phe-Tyr-Pro-Gln-Asp-Arg-Thr-Arg-Ser-Gln-Pro-Gln-Pro (FFYPQDRTRSQPQP; Addition of a phenylalanine group to the NH2 end of SEQ ID NO 2 does not substantially suppress biological activity.)
Ans: 0.002

Q: Record lookup: for frozen-thawed rooster sperm binding to an extract of hen's egg membrane, what Activity relative to SEQ ID NO: 1 belongs to YPQDRPRSQPQPKAN [SEQ ID NO:9] ?
Ans: 0.94

Q: What value of Activity relative to SEQ ID NO: 1 on frozen-thawed rooster sperm binding to an extract of hen's egg membrane does SEQ ID NO:7: Table 1 sequence: Acetyl-Tyr-Pro-Gln-Asp-Arg-Thr-Arg-Ser-Gln-Pro-Gln-Pro (Ac-YPQDRTRSQPQP) have?
Ans: 0.003
